- Target entity: TLR7 (Homo sapiens (Human), UniProt Q9NYK1)
- Sequence (Q9NYK1 27-1049): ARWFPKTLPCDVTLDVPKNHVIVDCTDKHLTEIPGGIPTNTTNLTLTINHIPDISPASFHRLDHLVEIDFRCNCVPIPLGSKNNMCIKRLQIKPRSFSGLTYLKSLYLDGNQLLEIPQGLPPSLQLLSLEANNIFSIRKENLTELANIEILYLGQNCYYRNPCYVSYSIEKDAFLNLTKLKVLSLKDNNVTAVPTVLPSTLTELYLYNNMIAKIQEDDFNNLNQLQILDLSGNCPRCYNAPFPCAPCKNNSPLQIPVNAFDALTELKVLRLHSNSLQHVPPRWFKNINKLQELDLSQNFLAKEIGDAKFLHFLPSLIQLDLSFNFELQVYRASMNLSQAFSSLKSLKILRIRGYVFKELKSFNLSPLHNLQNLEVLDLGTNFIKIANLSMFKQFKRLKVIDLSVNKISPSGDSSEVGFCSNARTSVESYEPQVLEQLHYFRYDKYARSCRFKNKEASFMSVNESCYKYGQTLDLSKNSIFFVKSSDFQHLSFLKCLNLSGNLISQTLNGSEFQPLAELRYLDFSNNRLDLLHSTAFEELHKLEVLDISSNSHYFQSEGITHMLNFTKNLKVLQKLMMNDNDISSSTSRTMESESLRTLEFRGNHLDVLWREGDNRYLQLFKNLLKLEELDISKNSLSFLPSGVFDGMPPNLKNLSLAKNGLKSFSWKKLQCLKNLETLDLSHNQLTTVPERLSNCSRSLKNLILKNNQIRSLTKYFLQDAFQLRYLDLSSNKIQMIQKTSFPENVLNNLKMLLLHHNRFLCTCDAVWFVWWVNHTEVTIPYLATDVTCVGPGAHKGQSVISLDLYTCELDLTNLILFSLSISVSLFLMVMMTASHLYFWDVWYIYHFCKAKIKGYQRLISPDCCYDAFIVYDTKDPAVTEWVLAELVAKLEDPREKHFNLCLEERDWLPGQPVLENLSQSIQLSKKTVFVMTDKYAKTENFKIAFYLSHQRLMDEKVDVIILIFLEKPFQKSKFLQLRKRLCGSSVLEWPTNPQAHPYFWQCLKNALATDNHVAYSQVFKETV
- Assay procedure: TLR7 human peripheral blood mononuclear cell (PBMC) cell-based assay (GS-986 as agonist; IL-6 and IFNα readout)
- Assay conditions: human PBMCs, TLR7 agonist GS-986 at 400 nM, 6 hours, antagonist potency; read-out: TLR-7 EC50
pEC50: −log10 of the molar value.
I would appreciate it if you labelled entries 1 (yes) when pEC50 is 10 or higher, otherwise 0 (no).

compound=Cc1c(-c2[nH]c3sc([C@@H]4C[C@@H]5C[C@H]4CN5Cc4ccc(Br)cc4)c(C)c3c2C(C)C)cn2ncnc2c1C class_name="0 (no)"
compound=Cc1c(-c2[nH]c3sc(C4CCN(C(=O)[C@H]5C[C@@H](C(F)(F)F)CCN5)CC4)c(C)c3c2C(C)C)cn2ncnc2c1C class_name="0 (no)"
compound=Cc1c(C2CCN(C(=O)CN3CCOCC3)CC2)sc2[nH]c(-c3cc(C)c4ncnn4c3)c(C(C)C)c12 class_name="0 (no)"
compound=Cc1c(C2CCC3(CC2)CNC3)sc2[nH]c(-c3cc(C)c4ncnn4c3)c(C(C)C)c12 class_name="0 (no)"
compound="Cc1c(-c2[nH]c3sc([C@H]4C[C@@H]5CC[C@H]4CN5CC(=O)N(C)C)c(C)c3c2C(C)C)cn2ncnc2c1C (single isomer, unassigned)" class_name="0 (no)"
compound=Cc1c(-c2[nH]c3sc(C4CCN(C(=O)[C@H]5COCCN5)CC4)c(C)c3c2C(C)C)cn2ncnc2c1C class_name="0 (no)"
compound="Cc1c(-c2[nH]c3sc(C4CC5(CNCCO5)C4)c(C)c3c2C(C)C)cn2ncnc2c1C (stereo not drawn) [Example 76]" class_name="1 (yes)"
compound="Cc1c(-c2[nH]c3sc(C4CC5(C4)CC(N(C4COC4)C4COC4)C5)c(C)c3c2C(C)C)cn2ncnc2c1C (stereo not drawn)" class_name="0 (no)"
compound="Cc1c(-c2[nH]c3sc(C4CCC(N5CC6(CCO6)C5)CC4)c(C)c3c2C(C)C)cn2ncnc2c1C (stereo not drawn)" class_name="0 (no)"
compound=Cc1c(-c2[nH]c3sc(-c4cnc(C5CCNCC5)nc4)c(C)c3c2C(C)C)cn2ncnc2c1C class_name="0 (no)"
compound=Cc1cc(-c2[nH]c3sc(C4CCN(CC(N)=O)CC4)c(C)c3c2C(C)C)cn(C)c1=O class_name="0 (no)"
compound=Cc1nc2c(C)cc(-c3[nH]c4sc(C5CCN(C(=O)[C@H]6COCCN6)CC5)c(C)c4c3C(C)C)cn2n1 class_name="0 (no)"
compound="Cc1c(C2CC3(CCCN3CC(N)=O)C2)sc2[nH]c(-c3cc(C)c4ncnn4c3)c(C(C)C)c12 (stereo not drawn)" class_name="0 (no)"
compound=Cc1c(-c2[nH]c3sc(C4CCN(C(=O)[C@H]5C[C@@]6(CNCCO6)C5)CC4)c(C)c3c2C(C)C)cn2ncnc2c1C class_name="1 (yes)"
compound=Cc1c(C2CCN(S(=O)(=O)N3CCNCC3)CC2)sc2[nH]c(-c3cc(C)c4ncnn4c3)c(C(C)C)c12 class_name="1 (yes)"
compound="Cc1c(-c2[nH]c3sc([C@@H]4C[C@@H]5C[C@H]4CN5C(C)C(N)=O)c(C)c3c2C(C)C)cn2ncnc2c1C (single isomer, unassigned) [Example 100]" class_name="0 (no)"
compound=Cc1c(-c2[nH]c3sc([C@@H]4C[C@@H]5C[C@H]4CN5Cc4cccn(C(F)F)c4=O)c(C)c3c2C(C)C)cn2ncnc2c1C class_name="0 (no)"
compound="Cc1c(-c2[nH]c3sc([C@@H]4C[C@@H]5C[C@H]4CN5C(C)C(N)=O)c(C)c3c2C(C)C)cn2ncnc2c1C (single isomer, unassigned) [Example 101]" class_name="0 (no)"
compound=Cc1c(C2CCC3(CC2)CN(C(=O)[C@@H]2CCCN2)C3)sc2[nH]c(-c3cc(C)c4ncnn4c3)c(C(C)C)c12 class_name="0 (no)"
compound=Cc1c(-c2[nH]c3sc([C@@H]4C[C@@H]5C[C@H]4CN5C(=O)[C@@H]4C[C@@H](F)CN4)c(C)c3c2C(C)C)cn2ncnc2c1C class_name="0 (no)"
compound="Cc1c(-c2[nH]c3sc(C4CCC(N5CC6(CCNC6=O)C5)CC4)c(C)c3c2C(C)C)cn2ncnc2c1C (single isomer, unassigned) [Example 306]" class_name="1 (yes)"
compound=Cc1c(-c2[nH]c3sc([C@@H]4C[C@@H]5C[C@H]4CN5C(CO)CO)c(C)c3c2C(C)C)cn2ncnc2c1C class_name="1 (yes)"
compound=Cc1c(-c2[nH]c3sc(C4CCN(C(=O)[C@H]5CO[C@H](C)CN5)CC4)c(C)c3c2C(C)C)cn2ncnc2c1C class_name="0 (no)"
compound=Cc1c(C2CCN(C(=O)[C@H]3CCCN3C)CC2)sc2[nH]c(-c3cc(C)c4ncnn4c3)c(C(C)C)c12 class_name="1 (yes)"
compound=Cc1c(-c2[nH]c3sc([C@@H]4C[C@@H]5C[C@H]4CN5CC(=O)NC(C)C)c(C)c3c2C(C)C)cn2ncnc2c1C class_name="0 (no)"

---

Parameter: pEC50. Scope: all listed entries.
- Target entity: TLR7 (Homo sapiens (Human))
- Assay procedure: TLR7 human peripheral blood mononuclear cell (PBMC) cell-based assay (GS-986 as agonist; IL-6 and IFNα readout)
- Assay conditions: human PBMCs, TLR7 agonist GS-986 at 400 nM, 6 hours, antagonist potency; read-out: TLR-7 EC50
pEC50: −log10 of the molar value.
Outcome measure: pEC50

molecule="Cc1c(-c2[nH]c3sc(C4COC5(CCN(CC(N)=O)CC5)C4)c(C)c3c2C(C)C)cn2ncnc2c1C (stereo not shown) [Example 80]" outcome_measure=pEC50 quantitative_result=8.67
molecule=Cc1c(C2CCN(C(=O)[C@@H]3C[C@@H](F)CN3)CC2)sc2[nH]c(-c3cc(C)c4ncnn4c3)c(C(C)C)c12 outcome_measure=pEC50 quantitative_result=9.28
molecule=Cc1c(-c2[nH]c3sc([C@@H]4C[C@@H]5C[C@H]4CN5CC(=O)O)c(C)c3c2C(C)C)cn2ncnc2c1C outcome_measure=pEC50 quantitative_result=8.60
molecule="Cc1c(C23CCN(CC(N)=O)CC2C3)sc2[nH]c(-c3cc(C)c4ncnn4c3)c(C(C)C)c12 (stereo not shown)" outcome_measure=pEC50 quantitative_result=9.33

---

- Target entity: TLR8 (Homo sapiens (Human), UniProt Q9NR97)
- Sequence (Q9NR97 27-1041): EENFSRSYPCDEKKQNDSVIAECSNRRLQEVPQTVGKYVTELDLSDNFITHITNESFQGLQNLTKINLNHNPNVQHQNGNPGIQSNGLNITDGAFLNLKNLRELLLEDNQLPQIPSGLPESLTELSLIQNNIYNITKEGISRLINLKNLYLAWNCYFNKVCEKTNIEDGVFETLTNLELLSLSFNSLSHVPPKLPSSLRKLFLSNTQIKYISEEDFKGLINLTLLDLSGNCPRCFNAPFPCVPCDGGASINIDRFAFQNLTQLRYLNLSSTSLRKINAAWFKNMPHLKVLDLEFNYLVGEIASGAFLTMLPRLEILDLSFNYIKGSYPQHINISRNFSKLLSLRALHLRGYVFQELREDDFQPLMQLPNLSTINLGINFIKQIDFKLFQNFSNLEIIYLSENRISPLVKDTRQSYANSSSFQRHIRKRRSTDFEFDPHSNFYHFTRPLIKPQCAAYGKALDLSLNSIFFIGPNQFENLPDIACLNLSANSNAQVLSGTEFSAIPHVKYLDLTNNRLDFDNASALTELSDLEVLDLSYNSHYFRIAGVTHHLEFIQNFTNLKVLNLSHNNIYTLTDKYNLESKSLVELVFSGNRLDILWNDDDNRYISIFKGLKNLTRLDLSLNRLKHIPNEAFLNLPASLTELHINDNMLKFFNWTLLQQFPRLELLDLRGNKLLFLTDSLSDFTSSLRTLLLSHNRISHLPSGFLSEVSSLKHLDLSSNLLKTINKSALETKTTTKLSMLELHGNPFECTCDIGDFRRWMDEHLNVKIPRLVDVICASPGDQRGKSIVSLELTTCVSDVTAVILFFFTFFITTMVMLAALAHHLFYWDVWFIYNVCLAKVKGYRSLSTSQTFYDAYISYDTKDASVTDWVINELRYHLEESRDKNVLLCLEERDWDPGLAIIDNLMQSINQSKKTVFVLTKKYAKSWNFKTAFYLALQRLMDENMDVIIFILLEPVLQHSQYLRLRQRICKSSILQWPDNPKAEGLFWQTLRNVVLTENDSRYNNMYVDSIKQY
- Assay procedure: TLR8 human peripheral blood mononuclear cell (PBMC) cell-based assay (Compound A as agonist; TNFα and IL12p40 readout)
- Assay conditions: human PBMCs, TLR8 agonist Compound A at 800 nM, 6 hours, antagonist potency; read-out: TLR-8 EC50
- Method: After counting, the cell density was adjusted to 2 million cells/ml and incubated for 1 hour at 37° C., 5% CO2 for recovery. […] The level of cytokines (TNFα and IL12p40) in the supernatant was measured by electrochemiluminescence immunoassays (Mesoscale Discovery) following manufacturer's recommended protocols.
pEC50: −log10 of the molar value.
Outcome measure: pEC50

compound=Cc1cc(-c2[nH]c3sc([C@H]4C[C@]5(CCN(CC(N)=O)C5)C4)c(C)c3c2C(C)C)cn2ncnc12 quantitative_result=9.27
compound=Cc1c(C2CCN(C(=O)[C@@H]3C[C@H](F)CN3)CC2)sc2[nH]c(-c3cc(C)c4ncnn4c3)c(C(C)C)c12 quantitative_result=7.82
compound="Cc1c(-c2[nH]c3sc(C4CC5(CNCCO5)C4)c(C)c3c2C(C)C)cn2ncnc2c1C (single isomer, unassigned) [Example 90]" quantitative_result=8.17
compound=Cc1c(-c2[nH]c3sc([C@@H]4C[C@@H]5C[C@H]4CN5Cc4c[nH]nn4)c(C)c3c2C(C)C)cn2ncnc2c1C quantitative_result=10.05
compound=Cc1c(-c2[nH]c3sc([C@@H]4C[C@@H]5C[C@H]4CN5CC4(F)COC4)c(C)c3c2C(C)C)cn2ncnc2c1C quantitative_result=8.97
compound="Cc1c(-c2[nH]c3sc(C4CC(C(=O)N5CCNCC5)C4)c(C)c3c2C(C)C)cn2ncnc2c1C (single isomer, unassigned) [Example 238]" quantitative_result=8.84
compound=COCc1c(C2CCN(CC(N)=O)CC2)sc2[nH]c(-c3cc(C)c4ncnn4c3)c(C(C)C)c12 quantitative_result=8.19
compound="Cc1c(-c2[nH]c3sc([C@@H]4C[C@@H]5CC[C@H]4CN5CCS(C)(=O)=O)c(C)c3c2C(C)C)cn2ncnc2c1C (single isomer, unassigned)" quantitative_result=9.10
compound="Cc1c(C23CC2CN(CC(N)=O)C3)sc2[nH]c(-c3cc(C)c4ncnn4c3)c(C(C)C)c12 (centres unmarked)" quantitative_result=7.53
compound=Cc1c(C2CC3(CCN(CC(N)=O)CC3)C2)sc2[nH]c(-c3cc(C)c4ncnn4c3)c(C(C)C)c12 quantitative_result=8.49
compound=Cc1c(C2CCC3(CC2)CN(C(=O)[C@H]2CCCN2)C3)sc2[nH]c(-c3cc(C)c4ncnn4c3)c(C(C)C)c12 quantitative_result=7.98
compound=Cc1c(C2CC3(C2)CN(C(=O)[C@H]2COCCN2)C3)sc2[nH]c(-c3cc(C)c4ncnn4c3)c(C(C)C)c12 quantitative_result=8.62
compound=Cc1c(C2CCN(CC3(C)COC3)CC2)sc2[nH]c(-c3cc(C)c4ncnn4c3)c(C(C)C)c12 quantitative_result=7.84
compound="Cc1c(-c2[nH]c3sc(C45CCN(CC(N)=O)CC4C5)c(C)c3c2C(C)C)cn2ncnc2c1C (centres unmarked) [Example 93]" quantitative_result=7.74
compound="Cc1c(-c2[nH]c3sc(C4CCN(C5CCNC5=O)CC4)c(C)c3c2C(C)C)cn2ncnc2c1C (single isomer, unassigned) [Example 291]" quantitative_result=7.65
compound=Cc1c(C2CCN(C(=O)[C@H]3COCCN3)CC2)sc2[nH]c(-c3cc(C)c4ncnn4c3)c(C(C)C)c12 quantitative_result=7.89
compound=Cc1c(C2CCN(C(=O)[C@@H]3CCCN3C)CC2)sc2[nH]c(-c3cc(C)c4ncnn4c3)c(C(C)C)c12 quantitative_result=8.11
compound=Cc1c(-c2[nH]c3sc([C@@H]4C[C@@H]5C[C@H]4CN5CC(=O)O)c(C)c3c2C(C)C)cn2ncnc2c1C quantitative_result=7.86
compound=Cc1c(-c2[nH]c3sc([C@@H]4C[C@@H]5C[C@H]4CN5CC(N)=O)cc3c2C(C)C)cn2ncnc2c1C quantitative_result=8.96
compound="Cc1c(-c2[nH]c3sc(C4CC5(CCN(CCS(C)(=O)=O)C5)C4)c(C)c3c2C(C)C)cn2ncnc2c1C (single isomer, unassigned) [Example 314]" quantitative_result=8.91
compound=Cc1c(-c2[nH]c3sc(C4CCN(C(=O)[C@H]5C[C@@]6(CNCCO6)C5)CC4)c(C)c3c2C(C)C)cn2ncnc2c1C quantitative_result=8.64
compound=Cc1c(C2CCC3(CC2)CN(C(=O)[C@@H]2CCCN2)C3)sc2[nH]c(-c3cc(C)c4ncnn4c3)c(C(C)C)c12 quantitative_result=8.00
compound=Cc1c(-c2[nH]c3sc([C@@H]4C[C@@H]5C[C@H]4CN5Cc4cc[nH]c(=O)c4)c(C)c3c2C(C)C)cn2ncnc2c1C quantitative_result=10.15
compound=Cc1c(-c2[nH]c3sc(-c4cccc(C5CCN(CC(N)=O)CC5)c4)c(C)c3c2C(C)C)cn2ncnc2c1C quantitative_result=7.18
compound=Cc1c(-c2[nH]c3sc([C@@H]4C[C@H]5CC[C@@H](C4)N5CC(N)=O)c(C)c3c2C(C)C)cn2ncnc2c1C quantitative_result=8.27
compound=Cc1c(C2CCN(C(=O)CN3CCOCC3)CC2)sc2[nH]c(-c3cc(C)c4ncnn4c3)c(C(C)C)c12 quantitative_result=7.44

Reference for the values: patent US11661431B2
